PROCEDURE TEXT: M. tuberculosis growth inhibition, HTS (AID 1259417);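 note: bacteria grown with compound for 5 days at 37 °C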
EXPERIMENTAL CONDITIONS: M. tuberculosis DsRed fluorescence growth inhibition; hits give high values; concentration not given here
The whole screen tested about 1,100 compounds, of which about 760 (69%) were called active. The set was probably picked from earlier hits. Some of the results follow.
MEASUREMENT LABEL: inhibition (%)
Give bare numbers, in %.

Example compounds with recorded inhibition:
{"columns": ["SMILES ENTRY", "U", "inhibition"],
 "data": [
  ["CCCCc1cc(=O)oc2cc(OCC(=O)OCc3ccccc3)c(Cl)cc12", "%", 33.1],
  ["COc1c2ccoc2nc2c(OC)cccc12", "%", 98.6],
  ["CCCCOC(=O)CSc1nc(N)c(C#N)c(-c2ccc(OC)cc2)c1C#N", "%", 4.48],
  ["C/C=C/c1ccc(OCC(=O)OCc2csc(Nc3ccc(C)cc3)n2)c(OC)c1", "%", 0.924],
  ["COc1cc(/C=C/c2ccc3c([N+](=O)[O-])cccc3n2)ccc1OCC(=O)O", "%", 89.6]
]}

Let's switch to this compound now.
I have this compound here, `Cc1ccc(C)c(-c2nnc(NC(=O)c3ccc([N+](=O)[O-])s3)o2)c1` , and I need its recorded inhibition.
98.9
